Reported activity at 5 µM is given for each of the following compounds.
test system: C. trachomatis L2/434/Bu expressing GFP (CTL2-GFP); construct: L2/434/Bu GFP intracellular growth in HeLa cells; assay: microbe, parasite or virus in culture; design: C. trachomatis total inclusion area by high-content imaging, normalised to DMSO; conditions: Chlamydia trachomatis, HeLa, 28.5 h; total inclusion area; read-out: % of control remaining
experimental-readout: activity at 5 µM (%)

# compound, experimental-readout, assay-value
records = [
    ("CC(=O)Nc1ccc(S(=O)(=O)Nc2ccc(C(=O)Nc3ccc(F)cc3)cc2)cc1", "activity at 5 µM", 48.5),
    ("O=C(CSCc1ccc(Cl)cc1)Nc1ccc(S(=O)(=O)N2CCCCCC2)cc1", "activity at 5 µM", 104),
    ("COc1c(Br)cc2c(cc(C)n2-c2ccccc2)c1OCC(O)CNC(C)C (stereo not drawn)", "activity at 5 µM", 0.762),
    ("CC(C)NCC(O)Cn1c2c(c3ccccc31)CCc1c-2cnn1-c1ccccc1 (stereo not drawn)", "activity at 5 µM", 73.8),
    ("CCC(CN1CCCC1)NC(=O)Cc1ccc(OC)c(C)c1 (stereo not drawn)", "activity at 5 µM", 47.2),
    ("CCCN(CCC)CCc1cccc2c1CCN2C(=O)c1cc2ccccc2s1 [CBK017871C]", "activity at 5 µM", 26.8),
    ("COc1ccc([C@H]2CN(Cc3ccccc3)[C@@H]3CCN(C(=O)Cc4ccccc4)C[C@H]23)cc1", "activity at 5 µM", 95.8),
    ("CC(Cc1nc(-c2nccn2C(C)C)cs1)n1cc(Cl)cn1 (stereo not drawn)", "activity at 5 µM", 55.7),
    ("CC(Oc1cccc2ccccc12)C(=S)N(C)c1ccccc1 (stereo not drawn)", "activity at 5 µM", 98.3),
]

----------
Reported viability at 28.5 h, 10 µM is given for each of the following molecules.
assay: in vitro; conditions: human, hela cells, % viability

# molecule, viability at 28.5 h, 10 µM / %
rows = [
    ("CCN(CC)C(=O)CN1C(=O)C2(Nc3ccccc3C(=O)N2c2ccc(C)cc2)c2ccccc21 (stereo not drawn)", 86),
    ("CC(=O)Nc1cccc(NC(=O)CCCC(=O)O)c1", 97.9),
    ("COc1ccc(-c2cc(C(=O)O)nn2C2CCS(=O)(=O)C2)cc1 (stereo not drawn)", 87.8),
    ("COc1ccc(C2C(C(=O)O)c3ccccc3C(=O)N2C)cc1 (stereo not drawn)", 85.8),
    ("CCn1c(SCC(=O)c2ccc(F)cc2)nnc1C(C)Oc1ccccc1 (stereo not drawn)", 108),
    ("CCn1nc(C)c(-c2cncn2CC(C)N2CCCCC2)c1C (stereo not drawn)", 102),
    ("O=C(Cc1c[nH]c(=O)[nH]c1=O)Nc1ncc(Cc2ccc(F)cc2)s1", 103),
    ("COc1ccc(C(=O)Nc2ccc(S(=O)(=O)N3CCN(C)CC3)cc2)cc1", 92.8),
    ("O=C(C1CCC1)N1CCC[C@H]1Cn1nc(-c2cccs2)ccc1=O", 80.9),
    ("FC(F)(F)c1cccc(CSc2nc3ccccc3nc2N2CCCC2)c1", 91.5),
    ("CC(C)C(=O)N1CCC(n2nc(-c3ccco3)ccc2=O)CC1", 83.8),
    ("O=C(CN1CCN(c2ccc([N+](=O)[O-])cn2)CC1)Nc1ccc2c(c1)OCO2", 115),
    ("Oc1cccc(OCCOc2nccc(C(F)(F)F)n2)c1", 92.7),
    ("COc1cc(C(C[N+](=O)[O-])c2c(C)[nH]c3ccccc23)ccc1O (stereo not drawn)", 82.9),
    ("CC(C)(C)OC(=O)NC1CCC(NCc2cc(F)cc(F)c2)CC1 (stereo not drawn)", 91.3),
    ("COc1nc2ccccc2nc1CCC(=O)O", 89.1),
    ("CNC(=O)N(O)C1N(NC(=O)Nc2ccccc2)C(=S)SC1(C)C (stereo not drawn)", 94.9),
    ("O=C(O)CCNC1CC(=O)N(Cc2ccccc2)C1=O (stereo not drawn)", 99),
    ("CS(=O)(=O)NC1CCCN(c2nc(-c3ccsc3)nc3ccccc23)C1 (stereo not drawn)", 99.1),
    ("CCOC(=O)c1cnn(-c2ccccc2)c1NS(=O)(=O)c1cccc(Cl)c1C", 84.6),
    ("COc1ccc([C@@H](O)[C@H]2CCCNC2)cc1", 86.3),
    ("CC(C)n1nccc1C(=O)NCC(c1ccc(F)cc1)N1CCCC1 (stereo not drawn)", 87.3),
    ("COc1ccc([C@@]23CC[C@@H](NC(=O)Nc4c(F)cc(F)cc4Cl)C[C@@H]2N(C)CC3)cc1OC [CBK073740T]", 112),
    ("COc1ccc(O)c(C(=O)c2cnn(C(=O)c3ccc(C)cc3)c2)c1", 86.3),
    ("COc1ccc(CN2C(=O)CO[C@H]3CN(c4nccc(C)n4)C[C@H]32)cc1", 86.1),
    ("CCOCc1nc2c(c(NCCn3cccn3)n1)CCN(C(C)=O)CC2", 98.3),
    ("O=C(Cc1nnn[nH]1)Nc1cccc(-c2nn[nH]n2)c1", 116),
    ("Cc1ccc(Nc2nc(N3CCOCC3)nc(N3CCOCC3)n2)cc1", 118),
    ("N#Cc1cccc(-n2cc(-c3ccc(C(F)(F)F)cc3)nn2)c1", 88.1),
    ("Nc1nnc(SCC(=O)N2CCN(C(c3ccccc3)c3ccccc3)CC2)n1-c1ccccc1", 108),
    ("COc1ccc(C)cc1-n1ccc(C(=O)NC2CCSCC2)n1", 94.6),
    ("COc1ccc(C(C)c2cc3c(cc2OCCO)OCO3)c(F)c1 (stereo not drawn)", 60.4),
    ("O=C(O)CN1C(=O)/C(=C2/C(=O)N(Cc3ccccc3Cl)c3ccccc32)SC1=S", 95.6),
    ("FC(F)(F)c1ccnc(OC2CCNC2)n1 (stereo not drawn)", 92.1),
    ("O=C(Nc1ccc2ncsc2c1)C1COc2ccccc2O1 (stereo not drawn)", 95.6),
    ("c1csc(C2NN=C3C4CCN(CC4)C32)c1 (stereo not drawn)", 91.5),
    ("Cc1nc2cc(OCc3nc(C(=O)N(CCO)CCO)co3)ccc2s1", 89.9),
    ("CS(=O)(=O)N1CC2(CCN(CCCC#N)CC2)c2ccccc21", 97.9),
    ("CN1CCC[C@H]1C(=O)Nc1ccc2ncccc2c1", 95.7),
]

----------
experiment: in vitro; conditions: human, hela cells, % viability
experimental-readout: viability at 28.5 h, 10 µM

# compound, assay-value
rows = [
    ("CC(C)Cn1cncc1CN1C(=O)CC2(CCCC2)CC1=O", "116%"),
    ("O=C(c1ccc([N+](=O)[O-])cc1Cl)N1CCN(Cc2ccccc2)CC1", "103%"),
    ("O=[N+]([O-])c1cccc(C(Nc2cccnc2)c2cc(Cl)c3cccnc3c2O)c1 (stereo not shown)", "93.7%"),
    ("CC(=O)NC[C@@H]1C=C(C)[C@H](Cc2nnc(-c3cncn3C)o2)C[C@H]1C(C)C", "107%"),
    ("COc1ccc(OCC(=O)Nc2ccc(CN3CCOCC3)cc2)cc1", "105%"),
    ("O=C(NC(=O)c1ccc2ccccc2c1)Nc1ccc(Br)cc1", "107%"),
    ("O=S(=O)(Nc1ccc2[nH]ncc2c1)c1ccc(Oc2ccccc2)cc1", "82.9%"),
    ("Cn1cc(-c2nc(C3CCCCCN3C(=O)c3cc(Cl)c[nH]3)no2)cn1 (stereo not shown)", "86.4%"),
    ("COc1ccc(-c2oc3ncn4nc(COc5ccccc5C)nc4c3c2-c2ccc(OC)cc2)cc1", "94.8%"),
    ("O=S(=O)(Nc1ccccn1)N1CCCCC1", "92.3%"),
    ("Cc1ccc(-c2cc(C(=O)Nc3ccc(S(=O)(=O)Nc4nccs4)cc3)c3ccccc3n2)c(C)c1", "85.3%"),
    ("CCOC(=O)c1cnc(N2CCOCC2)nc1NCCc1c[nH]c2ccccc12", "106%"),
    ("CCC1CCCCN1C(=O)CCc1c(C)nc(-c2ccccc2)[nH]c1=O (stereo not shown)", "87.5%"),
    ("Cn1c(O)c(CCNc2cc([C@H]3C[C@@H](O)C3)nc(N)n2)cnc1=O", "104%"),
    ("Cc1nc(S(=O)(=O)Nc2ccc3[nH]ccc3c2)cn1C", "68.3%"),
    ("CC(Oc1cccc(Cl)c1)C(=O)N/N=C/c1cccc(Oc2ccccc2)c1 (stereo not shown)", "77.5%"),
    ("O=C(/C=C/c1cccc([N+](=O)[O-])c1)Nc1ccc(Cl)c(-c2nc3ccccc3o2)c1", "102%"),
    ("COCc1nc2ccccc2n1CC(=O)N1CCC(c2ccccc2)C1 (stereo not shown)", "97.1%"),
    ("CC(C)(c1ccccc1)c1ccc(OCCCCn2cncn2)cc1", "89.5%"),
]
